# Tested on: U2OS
# test: Incucyte cell viability with U2OS; note: unitless GR value; below 1 slowed growth and below 0 cell loss
# Type: toxicity, cell-based
# condition.label: human, 6 h, 10 µM, compound concentration 10 uM, replicate number 1, timepoint 6 hours
Recorded measurements of Growth Rate, one per entry
I'd appreciate a reply containing only the number, no unit.

compound | Growth Rate
Cc1nnc2n1-c1sc(CCC(=O)N3CCOCC3)cc1C(c1ccccc1Cl)=NC2 | 0.99
O=C1NC(=Nc2c(Cl)cccc2Cl)S/C1=C\c1ccc2nccnc2c1 | 0
Cl.O=C1CC[C@@]2(O)[C@H]3Cc4ccc(O)c5c4[C@@]2(CCN3CC2CC2)[C@H]1O5 [NALTREXONE HYDROCHLORIDE] | -0.02
CO[C@H]1CNC[C@@H](OCC2CCC(F)(F)CC2)[C@@H]1Nc1ncc(-c2cncc(C)c2)c2cc(C)c(=O)[nH]c12 | 0.62
COC(=O)[C@H](CCCNC(=N)N)NC(=O)CCCc1c(-c2ccccc2)[nH]c2c(F)cc(F)cc12.O=C(O)C(F)(F)F | 0.46

[in] Please indicate recorded Growth Rate of CC[C@H]1CN2CCc3cc(OC)c(OC)cc3[C@@H]2C[C@@H]1C[C@H]1NCCc2cc(OC)c(OC)cc21 measured with U2OS.
[out] 0.25

###

Recorded measurements of Growth Rate, one per entry
# System: U2OS
# test: Incucyte cell viability with U2OS; note: unitless GR value; below 1 slowed growth and below 0 cell loss
# Assay type: toxicity, cell-based
# condition.label: human, 6 h, 10 µM, compound concentration 10 uM, replicate number 1, timepoint 6 hours
I'd appreciate a reply containing only the number, no unit.

smiles.representation | measured.on | Growth Rate
O=c1ccn([C@@H]2O[C@H](COP(=O)([O-])OP(=O)([O-])OP(=O)([O-])O)[C@@H](O)[C@H]2O)c(=O)[nH]1.[Na+].[Na+].[Na+] | U2OS | 0.21
Cc1ccccc1C#Cc1ccc(CCC(=O)O)cc1 | U2OS | 0.52
O=C(O)C(F)(F)F.O=C1NC(=O)/C(=C/c2c[nH]c(=O)c(-c3ccc(N4CCNCC4)nc3)c2)S1 | U2OS | 0.45

For the next question, use this compound.
[in] Indicate the recorded Growth Rate value for this compound: Cc1nccc(COC(=O)N2C[C@@H]3[C@@H](CNC(=O)c4ccc5[nH]nnc5c4)[C@@H]3C2)n1
[out] 0.79

###

# Tested on: Fibroblast
# test: Incucyte cell viability with human fibroblast; note: unitless GR value; below 1 slowed growth and below 0 cell loss
# Format: toxicity, cell-based
# condition.label: 0 h, 10 µM, compound concentration 10 uM, replicate number 2, timepoint 0 hours
Recorded measurements of Growth Rate, one per entry
I'd appreciate a reply containing only the number, no unit.

Example cases with answers are listed next.
molecule | measured.on | Growth Rate
CCCN1CCO[C@H]2c3cc(O)ccc3OC[C@@H]21.Cl | Fibroblast | 0.29
CCC(=O)OCC(=O)[C@@]1(OC(=O)CC)[C@@H](C)C[C@H]2[C@@H]3CCC4=CC(=O)C=C[C@]4(C)[C@@]3(Cl)[C@@H](O)C[C@@]21C [BECLOMETHASONE DIPROPIONATE] | Fibroblast | -0.56
CC(C)CCC[C@@H](C)[C@H]1CC[C@H]2[C@@H]3[C@H](O)C=C4C[C@@H](O)CC[C@]4(C)[C@H]3CC[C@]12C | Fibroblast | -0.09
C=CCNc1ncnc2ccc(Br)cc12 | Fibroblast | 0.05

[in] Please indicate recorded Growth Rate of CS(=O)(=O)N1CCCC(NC(=O)[C@H](CCC2CCCCC2)NC(=O)c2ccc(CNc3ncnc4c3nnn4-c3ccccc3)cc2)C1 (some centres not stated) measured with Fibroblast.
[out] -0.06

[in] Please indicate recorded Growth Rate of N#Cc1c(N)nc(SCc2csc(-c3ccc(Cl)cc3)n2)c(C#N)c1-c1ccc(OCCO)cc1 measured with Fibroblast.
[out] -0.41

[in] Please indicate recorded Growth Rate of O=C(O)CCC/C=C\C[C@H]1C(=O)C[C@@H](O)[C@@H]1/C=C/[C@@H](O)CCc1ccccc1 measured with Fibroblast.
[out] -0.3
